Kindly supply the reported pKi values for the records listed here.
# tested_on: human NK2 receptor (Homo sapiens, UniProt P21452)
# Sequence (P21452 1-398): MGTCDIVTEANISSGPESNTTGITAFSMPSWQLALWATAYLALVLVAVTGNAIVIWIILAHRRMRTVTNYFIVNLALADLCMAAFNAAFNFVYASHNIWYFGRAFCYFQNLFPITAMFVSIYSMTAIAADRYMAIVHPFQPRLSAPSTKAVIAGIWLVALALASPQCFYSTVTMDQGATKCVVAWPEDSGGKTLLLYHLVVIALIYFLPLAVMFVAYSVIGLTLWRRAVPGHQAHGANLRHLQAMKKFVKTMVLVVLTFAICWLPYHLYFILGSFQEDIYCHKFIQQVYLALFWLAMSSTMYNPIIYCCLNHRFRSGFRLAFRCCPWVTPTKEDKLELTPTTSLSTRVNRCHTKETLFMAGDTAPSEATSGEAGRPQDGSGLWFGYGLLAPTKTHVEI
# assay_summary: [3H]SR48968 competition binding assay
# condition_label: [3H]SR48968 displacement, membranes of CHO cells stably expressing recombinant human NK2 receptor; Ki from IC50 by Cheng-Prussoff
Numbers only, as −log10 of the molar value.

# molecule, reported_value
measured = [
    ("CN(C(=O)c1cccc(C(F)(F)F)c1)[C@@H]1CN(C(=O)N2CCN(S(C)(=O)=O)CC2)C[C@H]1c1ccc(Cl)cc1 (racemic)", 7.47),
    ("COc1ccc(C(=O)N(C)[C@H]2CN(C(=O)C3CCN(CCC(C)(C)C)CC3)C[C@@H]2c2ccc(Cl)cc2)cc1C(F)(F)F (racemic)", 9.15),
    ("CN(C(=O)c1ccc(Cl)c(C(F)(F)F)c1)[C@H]1CN(C(=O)C2CCN(S(=O)(=O)C3CC3)CC2)C[C@@H]1c1ccc(Cl)cc1 (racemic)", 8.77),
    ("COc1ccc(C(=O)N(C)[C@@H]2CN(C(=O)c3cc(C)n(C)n3)C[C@H]2c2ccc(Cl)c(Cl)c2)cc1C(F)(F)F (racemic)", 8.07),
    ("COc1ccc(C(=O)N(C)[C@@H]2CN(C(=O)c3ccc(C#N)cc3)C[C@H]2c2ccc(Cl)c(Cl)c2)cc1F (racemic)", 7.91),
]

Give me pKi for each of these molecules, listed below.
1. COc1ccc(C(=O)N(C)[C@@H]2CN(C(=O)c3ccc(F)cc3)C[C@H]2c2ccc(Cl)c(Cl)c2)cc1C(F)(F)F (racemic)
2. CN(C(=O)CC1CCOCC1)[C@H]1CN(C(=O)C2CCN(C(=O)C3(C)CC3)CC2)C[C@@H]1c1ccc(Cl)c(Cl)c1 (racemic)
3. COc1ccc(C(=O)N(C)[C@@H]2CN(C(=O)c3ccncc3)C[C@H]2c2ccc(Cl)c(Cl)c2)cc1C(F)(F)F (racemic)

[8.49, 7.89, 8.52]

----------
Kindly supply the reported pKi values for the records listed here.
# tested_on: human NK2 receptor (Homo sapiens, UniProt P21452)
# assay_summary: [3H]SR48968 competition binding assay
# condition_label: [3H]SR48968 displacement, membranes of CHO cells stably expressing recombinant human NK2 receptor; Ki from IC50 by Cheng-Prussoff
One number for each entry, as −log10 of the molar value.

// known answers, use as guide
# molecule, property_label, reported_value
measured = [
    ("CN(C(=O)c1ccc(C#N)cn1)[C@@H]1CN(C(=O)c2ccc(C#N)cc2)C[C@H]1c1ccc(Cl)c(Cl)c1 (racemic) [Example 70]", "pKi", 7.40),
    ("CCS(=O)(=O)N1CCC(C(=O)N2C[C@H](c3ccc(Cl)c(Cl)c3)[C@@H](N(C)C(=O)c3ccc(OC)c(C(F)(F)F)c3)C2)CC1 (racemic) [Example 140]", "pKi", 9.15),
    ("CN(C(=O)c1ccc(F)nc1)[C@@H]1CN(C(=O)c2ccc(C#N)cc2)C[C@H]1c1ccc(Cl)c(Cl)c1 (racemic) [Example 85]", "pKi", 7.09),
    ("CN(C(=O)c1cccc(Cl)c1)[C@@H]1CN(C(=O)N2CCN(S(C)(=O)=O)CC2)C[C@H]1c1ccc(Cl)c(Cl)c1 (racemic) [Example 11]", "pKi", 7.84),
    ("COc1ccc(C(=O)N(C)[C@@H]2CN(C(=O)c3cc(Cl)nc(Cl)c3)C[C@H]2c2ccc(Cl)c(Cl)c2)cc1C(F)(F)F (racemic) [Example 52]", "pKi", 8.43),
]

We now examine a further molecule.
What pKi appears in the records for this molecule with human NK2 receptor (Homo sapiens, UniProt P21452)? CN(C(=O)Cc1cccc(F)c1F)[C@H]1CN(C(=O)C2CCN(CC3CC3)CC2)C[C@@H]1c1ccc(Cl)c(Cl)c1 (racemic) [Example 152] 7.64
